Where do the numbers come from? From the supplement of paper PMC9170038.

- Test system: K4 kissing-loop RNA reporter;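 further: bound reporter read as fluorescence of individual clusters on recovered sequencing chips by microscopy, with normalized cluster intensities fitted with a binding model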
- assay-summary: apparent KD of K4 kissing-loop reporter; higher = weaker reporter binding
- test-settings: Eterna round: R107; input ligand: tryptophan 2.4 mM
Give measured apparent KD of K4 kissing-loop reporter for each item. Keep answers brief.
One number for each entry, in nM.

Use these answered entries as a reference point.
- AAGUGAUGUUGUAGUGAUGUUGUGAUGUUGCAGGAUAUAUAGUGAUGUAGAAGGGUAUGUACUUAUUUUUUUUUUGAGUUUUGUU [xgghzrmullin]: 68.3
- GGCGAUGAGUGAUGUUCAAAGAAUAAUGAUACCAGCUGAUGUCGAAGCCCUUGGCAGCAUAGAUACACCAAGUGAUGGUAAUGCC [Default title]: 143
- AUUCAGAUCUGAAGGAGCGCGUUGACAUAUUGCUUCAUUGAGCAGUGAUGUUGCUCAGUAACGCAGGUAGGUCGCAGAUCUGGCC [Arg B Ex t7a]: 104
- UUGUUUGGUUGAGAGGUUGGGCGAGAUGAUACCAGUAUAGUAUUGUACCCUUGGCAGCAUAGGAGAGAUAUAGUGAUGUUGUAUG [SSTheophA.W]: 328
- AGAGUUAAUUAGUCUUUUUUAACAUUAAGUCAGGAUAUCGUAUAUUCGAGAAGGGACACAUGCUAGUGAUGUUAGCUAUUUCUCA [JR_ExcFMNA_Sub018]: 47.2

Items follow; give apparent KD of K4 kissing-loop reporter for each.
1. CGCCGCAAGGCGAGCGCUCCCACUCCGGAAGGAGCGCCCGUAAGGGCAGGUAGGUCGCCGGAGUGAUGUUCCGGUGGAGGGCUCG [#2 Exclusion - Arginine A Attempt #14 (Inspired by Omei)]
2. GGCCGCAAGGCGGGCCGGCCCACUCCGGAAGGAGCGCCCGCAAGGGCAGGUAGGUCGCCGGAGUGAUGUUCCGGUGGCCGGCCCG [#2 Exclusion - Arginine A Attempt #2 (Inspired by Omei)]
3. GUGCAGUGAUGUUGCACGAGGAAAGACGAUACCAGCCGCAAAUGUGGCCCUUGGCAGCGUGGGCUAGCACAAAAUAUGCUAGUCU [Ricegeusat]
4. AAAAUAAUCCAGUGAUGUUGGUUUCCAGAUACCAGCGACGAAAGUCGCCCUUGGCAGCUGUGGACGUACAAAAUAAGUACGUCCU
5. UGUCAUUGGUCGGCCGCCACUAGGACCGGGAUUUUUCUAGUGAUGUUAGUUUGGUCGGCCGCCACUAGGACCGGGACCGAUGACU [KL-SSTryp-B13 #DoubleAptamer]
6. AUUCUAUUGUGAAGGAGCGCGUAUAGUAGUGAUGUUACUAUAAUAAUAGAUAUUUAAUUCUCGCAGGUAGGUCGCACAAUAUAUA [JR_Nu_ExcArginiB_Sub025]

Response:
[184, 130, 108, 300, 86.8, 92]

Items follow; give apparent KD of K4 kissing-loop reporter for each.
1. GGCCGGUUGAAAGGCCGGCCAGAAACCGAAGGAGCGCGAAGAAACGCAGGUAGGUCGCGGAAAACAUGACCAGUGAUGUUGGUCG
2. ACAUCGGUUGAGAGUGAUGUUCCUUGUGUUCGAGGACCGGUACGGCCGCCACUCGGGUAGAAAAUAACAGAUGUGUUUCCUUUUU [BDazzled - #18 SS Tryptophan A]

Response:
1: 144; 2: 209

Items follow; give apparent KD of K4 kissing-loop reporter for each.
1. UGGAUAUAGUGAUGUUAUAUAGAGAUGGAUACCAGUUAAGAGAAUAGCCCUUGGCAGCCGAAAGAAGUAUCAUUAGAGAAGAAUG [ExTheophyl.Ad]
2. GUAUCGCUAGGAGGAUAUUUCGUUUUUCAUAGCAAUGGCUAUGCGGAGUGAUGUUCCGAUUUACCGGAAGAAGGCCUAGUGAUAC [FMN B 26]
3. UGAACUUUUGCUAGGAACCGUCUAGCUCUUUAGGAUAUCUGGAAACAGAGAAGGAAAGACCUACAGAGUGAUGUUCUGCGUUCAU
4. AAUAAAAUCACGGCCGCCACUGAUUUUUUUAUUAGGAGUGAUGUUCCUAUGACUAUAUUAUUUAACAGGACCGGGUGAAUAUUUA [JR_SSTryptoB_Sub023]
5. GCCGUACGCAUGGAUACCAGACAACCAUUCUAAAUUUUGUGUCCGGUAGUGAUGUUACCUGUCCCUUGGCAGCCAUGCGUACGGC
6. UUUGGUUUCUCGGCCGCCACUCGUUGGUUAUGGGCCUCAGGGAUAUAGUGAUGUUAUGUAAAGAAGAGGACCGGGAGAAGGAAGG [ExTryptoB.Do]

Response:
1. 195
2. 165
3. 263
4. 74.5
5. 338
6. 380

Items follow; give apparent KD of K4 kissing-loop reporter for each.
1. AGGUCCGAGCCUGUAAAGGCUCGGACCUGUUAGGAUAUGACGUUAUUCAGAAGGGAUGGGUGGAGUGAUGUUCCACCCGCAAGGG [#2 Same State - FMN A Attempt #5 (HarryS)]
2. UUAAUAAUUCAAGGAUAUGUUUUCUAUUUCGAGUGAUGUUCGGAAUUAAUAAAUUUAAAAGAUUAUACAGAAGGUGAUAGAUAGU [Cynwulf-mod#3]
3. CCAUCGCUAUUCGAUACCAGUCAUAAAAUCUUUGGUUUAAUAAAGGAGUGAUGUUCCCAAGACCCUUGGCAGCGAAUAGUGAUGG [Theophylline B K4 8]
4. GGAUCCACCAGUGAUGUUGGAGAAAACUCUAAGGAUAUGACGAAAGUCAGAAGGUAGUAGACUGGACAAAGUCCGGUCGGAUCCA [FmnA 23 U30+A56]

Response:
[104, 75.9, 190, 484]

apparent KD of K4 kissing-loop reporter recorded for this sequence, CCAGGAUGAUGAGGAUGAUGAAUUACUGAAGGAGCGCAUAUGGUUGCAGGUAGGUCGCGGUGAACAAGUAUAGUGAUGUUAUGCC [SSArgA.W] , is 545
